Answer each item with its documented Mean serum Conc..
TEST METHOD NOTES: PK of 20 kDa PEGylated relaxin polypeptides after a single subcutaneous injection in SD rats (Example 40)
Type: in vivo, Sprague-Dawley (SD) rats
RUN CONDITIONS: 0.5 mg/kg SC, male SD rats, 50 hr
Non-standard residues stand in square brackets, D forms with d. No end group written: not given here. Phe(4-Ac) = CC(=O)c1ccc(C[C@H](N)C(=O)O)cc1
Numbers only; they are read as ng/mL.

# input substance: RLX-A-AR18-20KPEG-001: relaxin variant, B1 Ala, pAF at A chain position R18, 20K PEGylated (chain 1 QLYSALANKCCHVGCTKXSLARFC; chain 2 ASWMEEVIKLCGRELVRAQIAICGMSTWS; not fully specified; non-natural residues) ; wanted: its Mean serum Conc. 76.7

# input substance: RLX-A-AA5-20KPEG-001: relaxin variant, B1 Ala, pAF at A chain position A5, 20K PEGylated (chain 1 QLYSXLANKCCHVGCTKRSLARFC; chain 2 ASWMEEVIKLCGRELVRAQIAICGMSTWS; not fully specified; non-natural residues) ; wanted: its Mean serum Conc. 86.9

# input substance: RLX-A-BV7-20KPEG-001: relaxin variant, B1 Ala, pAF at B chain position V7, 20K PEGylated (chain 1 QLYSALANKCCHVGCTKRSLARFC; chain 2 ASWMEE[Phe(4-Ac)](PEG 20 kDa)IKLCGRELVRAQIAICGMSTWS; not fully specified (bridges); ends and bridges not checked) ; wanted: its Mean serum Conc. 104.0

---

TEST METHOD NOTES: PK of 20 kDa PEGylated relaxin polypeptides after a single subcutaneous injection in SD rats (Example 40)
Type: in vivo, Sprague-Dawley (SD) rats
RUN CONDITIONS: 0.5 mg/kg SC, male SD rats, 8 hr
Non-standard residues stand in square brackets, D forms with d. No end group written: not given here. Phe(4-Ac) = CC(=O)c1ccc(C[C@H](N)C(=O)O)cc1
Hi! Could you tag entries with Mean serum Conc. below 300 ng/mL as Yes, and those at or above as No? Much appreciated.

hey, is Mean serum Conc. for RLX-A-AR18-20KPEG-001: relaxin variant, B1 Ala, pAF at A chain position R18, 20K PEGylated (chain 1 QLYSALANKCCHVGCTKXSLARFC; chain 2 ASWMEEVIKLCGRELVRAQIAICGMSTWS; not fully specified; non-natural residues) lower than 300 ng/mL or not? Yes

hey, is Mean serum Conc. for RLX-A-AA5-20KPEG-001: relaxin variant, B1 Ala, pAF at A chain position A5, 20K PEGylated (chain 1 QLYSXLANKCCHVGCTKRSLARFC; chain 2 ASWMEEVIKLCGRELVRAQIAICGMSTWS; not fully specified; non-natural residues) lower than 300 ng/mL or not? Yes

hey, is Mean serum Conc. for RLX-A-AV13-20KPEG-001: relaxin variant, B1 Ala, pAF substituted for valine 13 in the A chain, 20K PEG attached (chain 1 QLYSALANKCCHXGCTKRSLARFC; chain 2 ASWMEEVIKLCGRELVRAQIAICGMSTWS; not fully specified; non-natural residues) lower than 300 ng/mL or not? No

hey, is Mean serum Conc. for RLX-A-BV7-20KPEG-001: relaxin variant, B1 Ala, pAF at B chain position V7, 20K PEGylated (chain 1 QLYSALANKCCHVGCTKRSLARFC; chain 2 ASWMEE[Phe(4-Ac)](PEG 20 kDa)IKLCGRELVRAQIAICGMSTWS; not fully specified (bridges); ends and bridges not checked) lower than 300 ng/mL or not? No

hey, is Mean serum Conc. for RLX-A-BW28-20KPEG-001: relaxin variant, B1 Ala, pAF at B chain position W28, 20K PEGylated (chain 1 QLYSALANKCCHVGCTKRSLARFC; chain 2 ASWMEEVIKLCGRELVRAQIAICGMST[Phe(4-Ac)](PEG 20 kDa)S; not fully specified (bridges); ends and bridges not checked) lower than 300 ng/mL or not? No

---

TEST METHOD NOTES: PK of 20 kDa PEGylated relaxin polypeptides after a single subcutaneous injection in SD rats (Example 40)
Format: in vivo, Sprague-Dawley (SD) rats
RUN CONDITIONS: 0.5 mg/kg SC, male SD rats, 2 hr
Non-standard residues stand in square brackets, D forms with d. No end group written: not given here. Phe(4-Ac) = CC(=O)c1ccc(C[C@H](N)C(=O)O)cc1
MEASUREMENT NAME: Mean serum Conc. (µg/mL)
Numbers only; they are read as µg/mL.

# input substance: RLX-A-AA5-20KPEG-001: relaxin variant, B1 Ala, pAF at A chain position A5, 20K PEGylated (chain 1 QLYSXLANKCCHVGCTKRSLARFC; chain 2 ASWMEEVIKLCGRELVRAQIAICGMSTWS; not fully specified; non-natural residues) ; wanted: its Mean serum Conc. 0.1001

# input substance: RLX-A-BV7-20KPEG-001: relaxin variant, B1 Ala, pAF at B chain position V7, 20K PEGylated (chain 1 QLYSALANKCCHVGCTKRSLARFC; chain 2 ASWMEE[Phe(4-Ac)](PEG 20 kDa)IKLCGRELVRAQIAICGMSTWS; not fully specified (bridges); ends and bridges not checked) ; wanted: its Mean serum Conc. 0.0989

# input substance: RLX-A-AR18-20KPEG-001: relaxin variant, B1 Ala, pAF at A chain position R18, 20K PEGylated (chain 1 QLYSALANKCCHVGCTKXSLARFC; chain 2 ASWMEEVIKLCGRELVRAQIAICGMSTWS; not fully specified; non-natural residues) ; wanted: its Mean serum Conc. 0.1097

# input substance: RLX-A-AV13-20KPEG-001: relaxin variant, B1 Ala, pAF substituted for valine 13 in the A chain, 20K PEG attached (chain 1 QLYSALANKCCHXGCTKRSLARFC; chain 2 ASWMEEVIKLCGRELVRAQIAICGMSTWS; not fully specified; non-natural residues) ; wanted: its Mean serum Conc. 0.1389

---

Answer each item with its documented Mean serum Conc..
TEST METHOD NOTES: PK of 20 kDa PEGylated relaxin polypeptides after a single subcutaneous injection in SD rats (Example 40)
Type: in vivo, Sprague-Dawley (SD) rats
RUN CONDITIONS: 0.5 mg/kg SC, male SD rats, 73 hr
Numbers only; they are read as ng/mL.

# input substance: RLX-A-AV13-20KPEG-001: relaxin variant, B1 Ala, pAF substituted for valine 13 in the A chain, 20K PEG attached (chain 1 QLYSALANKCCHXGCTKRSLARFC; chain 2 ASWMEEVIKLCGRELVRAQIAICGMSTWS; not fully specified; non-natural residues) ; wanted: its Mean serum Conc. 75.0

# input substance: RLX-A-AA5-20KPEG-001: relaxin variant, B1 Ala, pAF at A chain position A5, 20K PEGylated (chain 1 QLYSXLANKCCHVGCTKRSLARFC; chain 2 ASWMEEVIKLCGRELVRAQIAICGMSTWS; not fully specified; non-natural residues) ; wanted: its Mean serum Conc. 32.8

# input substance: RLX-A-AR18-20KPEG-001: relaxin variant, B1 Ala, pAF at A chain position R18, 20K PEGylated (chain 1 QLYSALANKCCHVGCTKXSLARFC; chain 2 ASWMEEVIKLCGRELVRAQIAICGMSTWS; not fully specified; non-natural residues) ; wanted: its Mean serum Conc. 25.0

---

TEST METHOD NOTES: PK of 20 kDa PEGylated relaxin polypeptides after a single subcutaneous injection in SD rats (Example 40)
Assay type: in vivo, Sprague-Dawley (SD) rats
RUN CONDITIONS: 0.5 mg/kg SC, male SD rats, 50 hr
Non-standard residues stand in square brackets, D forms with d. No end group written: not given here. Phe(4-Ac) = CC(=O)c1ccc(C[C@H](N)C(=O)O)cc1
Answer each item with its documented Mean serum Conc..
Numbers only; they are read as ng/mL.

# input substance: RLX-A-AV13-20KPEG-001: relaxin variant, B1 Ala, pAF substituted for valine 13 in the A chain, 20K PEG attached (chain 1 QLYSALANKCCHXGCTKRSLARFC; chain 2 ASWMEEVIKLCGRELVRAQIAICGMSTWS; not fully specified; non-natural residues) ; wanted: its Mean serum Conc. 320.9

# input substance: RLX-A-BW28-20KPEG-001: relaxin variant, B1 Ala, pAF at B chain position W28, 20K PEGylated (chain 1 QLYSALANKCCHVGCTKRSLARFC; chain 2 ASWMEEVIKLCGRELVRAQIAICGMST[Phe(4-Ac)](PEG 20 kDa)S; not fully specified (bridges); ends and bridges not checked) ; wanted: its Mean serum Conc. 184.2

---

TEST METHOD NOTES: PK of 20 kDa PEGylated relaxin polypeptides after a single subcutaneous injection in SD rats (Example 40)
Assay type: in vivo, Sprague-Dawley (SD) rats
RUN CONDITIONS: 0.5 mg/kg SC, male SD rats, 34 hr
Non-standard residues stand in square brackets, D forms with d. No end group written: not given here. Phe(4-Ac) = CC(=O)c1ccc(C[C@H](N)C(=O)O)cc1
Label scheme for Mean serum Conc.: lower than 400 ng/mL is f, 400 ng/mL and above is t.

Could you please find out whether RLX-A-AA5-20KPEG-001: relaxin variant, B1 Ala, pAF at A chain position A5, 20K PEGylated (chain 1 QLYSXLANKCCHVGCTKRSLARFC; chain 2 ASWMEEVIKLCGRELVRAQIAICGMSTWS; not fully specified; non-natural residues) has Mean serum Conc. that meets 400 ng/mL or exceeds it? f

Could you please find out whether RLX-A-AR18-20KPEG-001: relaxin variant, B1 Ala, pAF at A chain position R18, 20K PEGylated (chain 1 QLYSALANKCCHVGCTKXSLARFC; chain 2 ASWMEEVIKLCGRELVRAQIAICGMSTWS; not fully specified; non-natural residues) has Mean serum Conc. that meets 400 ng/mL or exceeds it? f

Could you please find out whether RLX-A-BV7-20KPEG-001: relaxin variant, B1 Ala, pAF at B chain position V7, 20K PEGylated (chain 1 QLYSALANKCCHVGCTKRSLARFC; chain 2 ASWMEE[Phe(4-Ac)](PEG 20 kDa)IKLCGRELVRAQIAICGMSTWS; not fully specified (bridges); ends and bridges not checked) has Mean serum Conc. that meets 400 ng/mL or exceeds it? f

Could you please find out whether RLX-A-AV13-20KPEG-001: relaxin variant, B1 Ala, pAF substituted for valine 13 in the A chain, 20K PEG attached (chain 1 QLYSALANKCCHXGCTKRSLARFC; chain 2 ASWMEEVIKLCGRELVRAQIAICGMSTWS; not fully specified; non-natural residues) has Mean serum Conc. that meets 400 ng/mL or exceeds it? t
